Measured NanoBRET Fold Response, listed per entry.
ASSAYED_SYSTEM: HCRTR1 (Homo sapiens)
Construct: purchased Promega (in-house HiBiT-GPCR construct library, NanoBRET)
Sequence (O43613 whole entry): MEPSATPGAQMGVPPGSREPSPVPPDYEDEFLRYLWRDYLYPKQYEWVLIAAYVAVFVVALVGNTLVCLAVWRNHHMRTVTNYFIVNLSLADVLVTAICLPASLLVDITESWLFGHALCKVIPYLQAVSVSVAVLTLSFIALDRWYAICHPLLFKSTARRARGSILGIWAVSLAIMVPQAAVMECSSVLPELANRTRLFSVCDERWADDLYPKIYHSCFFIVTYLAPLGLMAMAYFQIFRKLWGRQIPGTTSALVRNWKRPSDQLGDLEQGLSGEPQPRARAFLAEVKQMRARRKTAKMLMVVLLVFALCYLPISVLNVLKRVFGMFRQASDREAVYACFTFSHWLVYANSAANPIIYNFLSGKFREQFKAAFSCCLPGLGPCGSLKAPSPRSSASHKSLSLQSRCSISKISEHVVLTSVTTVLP
EXPERIMENTAL_PROTOCOL: NanoBRET screen HiBiT-HCRTR1 in HEK293
Type: binding
EXPERIMENTAL_PARAMETERS: HCRTR1; tracer 1μM

COMPOUND | NanoBRET Fold Response
N#CN=C(NCCCOc1cccc(CN2CCCCC2)c1)NCCNC(=O)CCOCCOCCOCCOCCNC(=O)CCc1ccc2n1[B-](F)(F)[N+]1=C(c3ccc[nH]3)C=CC1=C2 [Aminopotentidine-2-NB590] | 0.95
CC(C)N(CC[C@H](c1ccccc1)c1cc(CCNC(=O)CCOCCOCCOCCOCCNC(=O)CCc2ccc3n2[B-](F)(F)[N+]2=C(c4ccc[nH]4)C=CC2=C3)ccc1O)C(C)C [Tolterodine-2-NB590] | 1.16
O=C(CCc1ccc2n1[B-](F)(F)[N+]1=C(c3ccc[nH]3)C=CC1=C2)NCc1ccc(C(=O)NCCOCCC(=O)N[C@@H]2CC[C@@]3(O)[C@H]4Cc5ccc(O)c6c5[C@@]3(CCN4CC3CC3)[C@H]2O6)cc1 [Naltrexone-3-NB590] | 0.88
CCCn1c(=O)c2[nH]c(-c3ccc(OCC(=O)NCCNC(=O)CCOCCNC(=O)c4ccc(CNC(=O)CCc5ccc6n5[B-](F)(F)[N+]5=C(c7ccc[nH]7)C=CC5=C6)cc4)cc3)nc2n(CCC)c1=O [XAC-3-NB590] | 0.88
Cc1cc2c(s1)Nc1ccccc1N=C2N1CCN(CCCNC(=O)CCOCCOCCOCCOCCNC(=O)CCc2ccc3n2[B-](F)(F)[N+]2=C(c4ccc[nH]4)C=CC2=C3)CC1 [Olanzapine-a-2-NB590] | 0.99
Cc1nc2n(c(=O)c1CCN1CCC(c3noc4cc(F)ccc34)CC1)CCCC2OC(=O)NCCOCCOCCOCCOCCNC(=O)CCc1ccc2n1[B-](F)(F)[N+]1=C(c3ccc[nH]3)C=CC1=C2 (stereo not shown) [Risperidone-2-NB590] | 1.05
O=C(CCOCCOCCOCCOCCNC(=O)CCc1ccc2n1[B-](F)(F)[N+]1=C(c3ccc[nH]3)C=CC1=C2)NCCCN1CCN(C2=Nc3ccccc3Oc3ccc(Cl)cc32)CC1 [Loxapine-a-2-NB590] | 1.09
O=C(CCc1ccc2n1[B-](F)(F)[N+]1=C(c3ccc[nH]3)C=CC1=C2)NCCOCCOCCNC(=O)OCCOCCN1CCN(C2=Nc3ccccc3Sc3ccccc32)CC1 [Quetiapine-a-2-NB590] | 0.77
CC(C)N(CC[C@H](c1ccccc1)c1cc(CCNC(=O)c2ccc(CNC(=O)CCc3ccc4n3[B-](F)(F)[N+]3=C(c5ccc[nH]5)C=CC3=C4)cc2)ccc1O)C(C)C [Tolterodine-BZ-NB590] | 1.07
COc1ccccc1N1CCN(CCCCN2C(=O)c3ccc(CNC(=O)CCOCCNC(=O)c4ccc(CNC(=O)CCc5ccc6n5[B-](F)(F)[N+]5=C(c7ccc[nH]7)C=CC5=C6)cc4)cc3C2=O)CC1 [NAN-190-3-NB590] | 0.91

====

ASSAYED_SYSTEM: MCHR2 (Homo sapiens)
Construct: purchased Promega (in-house HiBiT-GPCR construct library, NanoBRET)
Sequence (Q969V1 whole entry): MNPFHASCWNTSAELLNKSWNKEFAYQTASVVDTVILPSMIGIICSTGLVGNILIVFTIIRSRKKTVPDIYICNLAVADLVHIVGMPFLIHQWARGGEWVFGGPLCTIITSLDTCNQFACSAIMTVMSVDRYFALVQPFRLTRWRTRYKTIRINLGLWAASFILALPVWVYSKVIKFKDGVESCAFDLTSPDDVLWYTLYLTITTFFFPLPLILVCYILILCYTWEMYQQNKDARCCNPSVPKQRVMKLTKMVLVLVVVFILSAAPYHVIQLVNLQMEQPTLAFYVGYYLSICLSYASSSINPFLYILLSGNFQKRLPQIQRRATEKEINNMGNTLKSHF
EXPERIMENTAL_PROTOCOL: NanoBRET screen HiBiT-MCHR2 in HEK293
Type: binding
EXPERIMENTAL_PARAMETERS: MCHR2; tracer 0.1μM
Measured NanoBRET Fold Response, listed per entry.
READOUT_LABEL: NanoBRET Fold Response

COMPOUND | READOUT_LABEL | ENDPOINT_RESULT
COc1ccccc1N1CCN(CCCCN2C(=O)c3ccc(CNC(=O)CCOCCNC(=O)c4ccc(CNC(=O)CCc5ccc6n5[B-](F)(F)[N+]5=C(c7ccc[nH]7)C=CC5=C6)cc4)cc3C2=O)CC1 | NanoBRET Fold Response | 1.09
O=C(CCc1ccc2n1[B-](F)(F)[N+]1=C(c3ccc[nH]3)C=CC1=C2)NCc1ccc(C(=O)NCCOCCC(=O)N[C@@H]2CC[C@@]3(O)[C@H]4Cc5ccc(O)c6c5[C@@]3(CCN4CC3CC3)[C@H]2O6)cc1 [Naltrexone-3-NB590] | NanoBRET Fold Response | 1.10
COc1ccccc1N1CCN(CCCCN2C(=O)c3ccc(CNC(=O)CCOCCOCCOCCOCCNC(=O)CCc4ccc5n4[B-](F)(F)[N+]4=C(c6ccc[nH]6)C=CC4=C5)cc3C2=O)CC1 | NanoBRET Fold Response | 0.99
O=C(CCc1ccc2n1[B-](F)(F)[N+]1=C(c3ccc[nH]3)C=CC1=C2)NCCOCCOCCNC(=O)OCCOCCN1CCN(C2=Nc3ccccc3Sc3ccccc32)CC1 | NanoBRET Fold Response | 1.03
O=C(CCOCCOCCOCCOCCNC(=O)CCc1ccc2n1[B-](F)(F)[N+]1=C(c3ccc[nH]3)C=CC1=C2)NCCCN1CCN(C2=Nc3ccccc3Oc3ccc(Cl)cc32)CC1 | NanoBRET Fold Response | 1.02
CCCn1c(=O)c2[nH]c(-c3ccc(OCC(=O)NCCNC(=O)CCOCCNC(=O)c4ccc(CNC(=O)CCc5ccc6n5[B-](F)(F)[N+]5=C(c7ccc[nH]7)C=CC5=C6)cc4)cc3)nc2n(CCC)c1=O | NanoBRET Fold Response | 0.96

// data source = paper PMC8151276
